This collection of values is drawn from patent US20200338203A1.

Target: T1, Human EphA2 (Ecto) (Human, UniProt P29317 24-537)
T1 construct: extracellular domain
T1 sequence (P29317 24-537): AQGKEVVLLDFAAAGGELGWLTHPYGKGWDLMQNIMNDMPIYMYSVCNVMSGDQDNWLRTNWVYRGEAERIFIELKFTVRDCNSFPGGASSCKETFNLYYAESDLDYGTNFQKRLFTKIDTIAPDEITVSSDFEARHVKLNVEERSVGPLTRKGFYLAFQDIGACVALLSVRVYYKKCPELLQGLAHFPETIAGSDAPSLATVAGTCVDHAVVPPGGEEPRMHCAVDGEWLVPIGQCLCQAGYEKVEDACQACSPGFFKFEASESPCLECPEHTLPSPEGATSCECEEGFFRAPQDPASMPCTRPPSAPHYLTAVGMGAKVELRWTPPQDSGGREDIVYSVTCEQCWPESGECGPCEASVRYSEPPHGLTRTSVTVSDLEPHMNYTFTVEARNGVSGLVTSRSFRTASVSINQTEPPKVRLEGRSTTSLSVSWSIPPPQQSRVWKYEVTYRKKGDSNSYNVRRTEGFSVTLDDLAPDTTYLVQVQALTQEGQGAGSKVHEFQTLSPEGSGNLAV
Assay: FP competition; competitor Compound 18
pKi: −log10 of the molar value. Numbered stars: 1 amine (or outer) side, 2 acyl side, 3 side chain; on linkers, the order of the positions; unused ones are H or OH. Bridge positions count the residues as written; N and C are the ends. Square brackets hold non-standard residues; d marks the D form. Ends that are not written are not given here. Dip = N[C@H](C(=O)O)C(c1ccccc1)c1ccccc1; 1Nal = N[C@@H](Cc1cccc2ccccc12)C(=O)O; TBMB = c1c(C[*:1])cc(C[*:3])cc1C[*:2]; Gly(cPr) = N[C@H](C(=O)O)C1CC1; Aib = CC(C)(N)C(=O)O; Sar = CNCC(=O)O
recordedEndpoint: pKi

Recorded results for 2 binders are shown here.
stdin: For the binder Ac-[Sar][Sar]A[dD]DVPCPWGPFWCPVNRPGC (linker 8-15-22 via TBMB) [Compound 200] , report pKi.
stdout: 8.39

stdin: For the binder ADVHCPWGPFWCPVN[dA]PGCA (linker 5-12-19 via TBMB) [Compound 156] , report pKi.
stdout: 7.83

[A] [Sar][Sar]AC[Aib][1Nal]GPFWCPVNRPGC (linker 4-11-18 via TBMB) [Compound 113]
[B] Ac-[Sar][Sar]A[dD][Gly(cPr)]TCPWGPFWCPVNRPGC (linker 7-14-21 via TBMB) [Compound 162]
[C] ADVHCP[Dip]GPFWCPVNRPGCA (linker 5-12-19 via TBMB) [Compound 149]
[D] ADVHCPWAPFWCPVNRPGCA (linker 5-12-19 via TBMB) [Compound 151]
stdin: Sort entries by pKi from minimum to maximum value. // list labels; follow requested order
stdout: D, C, A, B
(D: 6.41, C: 7.28, A: 8.00, B: 8.59)
